Assign log10(MIC) to each entry below.
System: E. aerogenes 8
Assay: In vitro antibacterial activity (MIC)
Assay type: cell-based
Details: Klebsiella aerogenes; E. aerogenes 8; read-out: MIC
Counter-ions that a name gives are not always drawn.
Units before log transform: µg/mL; reported quantity: MIC; transform: log10.

Lab note: compound `CC1(C)S[C@@H]2[C@H](N=CN3CCC(Cn4ccnc4)CC3)C(=O)N2[C@H]1C(=O)O` tested on E. aerogenes 8; recorded log10(MIC) was 1.51

Lab note: compound CC1(C)S[C@@H]2[C@H](N=CN3CCCC(c4ncc[nH]4)C3)C(=O)N2[C@H]1C(=O)O (stereo partly shown) [P, hydrochloride] tested on E. aerogenes 8; recorded log10(MIC) was 1.20

Lab note: compound CC1(C)S[C@@H]2[C@H](N=CN3CCC(c4ncc[nH]4)CC3)C(=O)N2[C@H]1C(=O)O [O, hydrochloride trihydrate] tested on E. aerogenes 8; recorded log10(MIC) was 1.51

Lab note: compound CC1(C)S[C@@H]2[C@H](N=CN3CCC(CCCn4ccnc4N)CC3)C(=O)N2[C@H]1C(=O)O [I, hydrochloride] tested on E. aerogenes 8; recorded log10(MIC) was 2.11

Lab note: compound CCc1nc(C)cn1CCCC1CCN(C=N[C@@H]2C(=O)N3[C@@H]2SC(C)(C)[C@@H]3C(=O)O)CC1 [G, hydrochloride] tested on E. aerogenes 8; recorded log10(MIC) was 1.20

Lab note: compound CC1(C)S[C@@H]2[C@H](N=CN3CCC(CCn4ccnc4)CC3)C(=O)N2[C@H]1C(=O)O [B, hydrate hydrochloride] tested on E. aerogenes 8; recorded log10(MIC) was -0.60

Lab note: compound CC1(C)S[C@@H]2[C@H](N=CN3CCC(Cn4ccnc4CN)CC3)C(=O)N2[C@H]1C(=O)O [J, hydrochloride] tested on E. aerogenes 8; recorded log10(MIC) was -0.30

Lab note: compound CC1(C)S[C@@H]2[C@H](N=CN3CCC(CCC4=NCCN4)CC3)C(=O)N2[C@H]1C(=O)O [N, hydrochloride] tested on E. aerogenes 8; recorded log10(MIC) was 1.51

Lab note: compound CC1(C)S[C@@H]2[C@H](N=CN3CCC(Cc4ncc[nH]4)CC3)C(=O)N2[C@H]1C(=O)O [Q, hydrochloride] tested on E. aerogenes 8; recorded log10(MIC) was -0.90

Lab note: compound CC1(C)S[C@@H]2[C@H](N=CN3CCC(CC4=NCCN4)CC3)C(=O)N2[C@H]1C(=O)O [M, hydrochloride] tested on E. aerogenes 8; recorded log10(MIC) was 1.51

Lab note: compound CC1(C)S[C@@H]2[C@H](N=CN3CCC(CCCn4ccnc4[N+](=O)[O-])CC3)C(=O)N2[C@H]1C(=O)O [K, hydrate] tested on E. aerogenes 8; recorded log10(MIC) was 0.90

Lab note: compound CC1(C)S[C@@H]2[C@H](/N=C/N3CCCCCC3)C(=O)N2[C@H]1C(=O)O [Amdinocillin, amdinocillin, reference compound] tested on E. aerogenes 8; recorded log10(MIC) was -0.60

Lab note: compound Cc1nc(C)n(CCCC2CCN(C=N[C@@H]3C(=O)N4[C@@H]3SC(C)(C)[C@@H]4C(=O)O)CC2)c1C [E, hydrate hydrochloride] tested on E. aerogenes 8; recorded log10(MIC) was 1.51

Lab note: compound Cc1nccn1CCCC1CCN(C=N[C@@H]2C(=O)N3[C@@H]2SC(C)(C)[C@@H]3C(=O)O)CC1 [F, hydrate] tested on E. aerogenes 8; recorded log10(MIC) was 1.51

Lab note: compound CC1(C)S[C@@H]2[C@H](N=CN3CCC(C4=NCCN4)CC3)C(=O)N2[C@H]1C(=O)O [L, hydrochloride] tested on E. aerogenes 8; recorded log10(MIC) was 1.51
